Target: human Cav1.2 (Homo sapiens)
Experiment: Sophion QPatch whole-cell voltage clamp dose-response assay, Cav1.2-HEK293(AUX) cell line (barium currents)
Settings: QPatch EC50, 6-point dose response, 20-ms pulses from −80 mV to 0 mV; n = 1 unless marked (* n = 2, # n = 3)
Measured pEC50 of individual entries
The quantity pEC50 is defined as the negative base-10 logarithm of the molar concentration.

Reference set, count: 8
Input: Which pEC50 reading was recorded for the molecule COC(=O)C1=C(C)NC2=C(C(=O)OC2)[C@H]1c1cc(F)cc(F)c1C(C)C (single isomer, unassigned) [Example 18] ?
Output: 6.99

Input: Name the recorded pEC50 for COC(=O)C1=C(C)NC2=C(C(=O)OC2)[C@H]1c1cccc(F)c1C1CC1 (single isomer, unassigned) [Example 4] .
Output: 6.96

Input: What measured pEC50 goes with CCc1c(F)cccc1[C@H]1C(C(=O)OC)=C(C)NC2=C1C(=O)OC2 (single isomer, unassigned) [Example 13] ?
Output: 6.66

Input: So what does the record say about pEC50 for COC(=O)C1=C(C)NC2=C(C(=O)OC2)[C@H]1c1cccc(F)c1C(C)(C)F (single isomer, unassigned) [Example 8] ?
Output: 6.66

Input: Entry under review: COC(=O)C1=C(C)NC2=C(C(=O)OC2)[C@H]1c1cccc(F)c1CC(F)(F)F (single isomer, unassigned) [Example 9] . Reported pEC50?
Output: 6.89

Input: Requested field: pEC50. Item: COC(=O)C1=C(C)NC2=C(C(=O)OC2)[C@H]1c1cccc(F)c1[C@H]1CC1(F)F (single isomer, unassigned) [Example 1]
Output: 6.89

Input: Entry C=C(c1c(F)cc(F)cc1[C@H]1C(C(=O)OC)=C(C)NC2=C1C(=O)OC2)C(F)(F)F (single isomer, unassigned) [Example 19] has what pEC50?
Output: 7.92

Input: GET /values?readout=pEC50&item= COC(=O)C1=C(C)NC2=C(C(=O)OC2)[C@H]1c1cccc(F)c1[C@H](C)F (single isomer, unassigned) [Example 10]
Output: 7.40

Next:
Input: Any idea what pEC50 was measured for COC(=O)C1=C(C)NC2=C(C(=O)OC2)[C@H]1c1cc(F)cc(F)c1C1CC1 (single isomer, unassigned) [Example 14] ?
Output: 7.19

Input: Look up pEC50 for this molecule: CCc1c(F)cc(F)cc1[C@H]1C(C(=O)OC)=C(C)NC2=C1C(=O)OC2 (single isomer, unassigned) [Example 12]
Output: 6.96

====

Target: human Cav1.2 (Homo sapiens, UniProt Q13936)
Sequence (Q13936 whole entry): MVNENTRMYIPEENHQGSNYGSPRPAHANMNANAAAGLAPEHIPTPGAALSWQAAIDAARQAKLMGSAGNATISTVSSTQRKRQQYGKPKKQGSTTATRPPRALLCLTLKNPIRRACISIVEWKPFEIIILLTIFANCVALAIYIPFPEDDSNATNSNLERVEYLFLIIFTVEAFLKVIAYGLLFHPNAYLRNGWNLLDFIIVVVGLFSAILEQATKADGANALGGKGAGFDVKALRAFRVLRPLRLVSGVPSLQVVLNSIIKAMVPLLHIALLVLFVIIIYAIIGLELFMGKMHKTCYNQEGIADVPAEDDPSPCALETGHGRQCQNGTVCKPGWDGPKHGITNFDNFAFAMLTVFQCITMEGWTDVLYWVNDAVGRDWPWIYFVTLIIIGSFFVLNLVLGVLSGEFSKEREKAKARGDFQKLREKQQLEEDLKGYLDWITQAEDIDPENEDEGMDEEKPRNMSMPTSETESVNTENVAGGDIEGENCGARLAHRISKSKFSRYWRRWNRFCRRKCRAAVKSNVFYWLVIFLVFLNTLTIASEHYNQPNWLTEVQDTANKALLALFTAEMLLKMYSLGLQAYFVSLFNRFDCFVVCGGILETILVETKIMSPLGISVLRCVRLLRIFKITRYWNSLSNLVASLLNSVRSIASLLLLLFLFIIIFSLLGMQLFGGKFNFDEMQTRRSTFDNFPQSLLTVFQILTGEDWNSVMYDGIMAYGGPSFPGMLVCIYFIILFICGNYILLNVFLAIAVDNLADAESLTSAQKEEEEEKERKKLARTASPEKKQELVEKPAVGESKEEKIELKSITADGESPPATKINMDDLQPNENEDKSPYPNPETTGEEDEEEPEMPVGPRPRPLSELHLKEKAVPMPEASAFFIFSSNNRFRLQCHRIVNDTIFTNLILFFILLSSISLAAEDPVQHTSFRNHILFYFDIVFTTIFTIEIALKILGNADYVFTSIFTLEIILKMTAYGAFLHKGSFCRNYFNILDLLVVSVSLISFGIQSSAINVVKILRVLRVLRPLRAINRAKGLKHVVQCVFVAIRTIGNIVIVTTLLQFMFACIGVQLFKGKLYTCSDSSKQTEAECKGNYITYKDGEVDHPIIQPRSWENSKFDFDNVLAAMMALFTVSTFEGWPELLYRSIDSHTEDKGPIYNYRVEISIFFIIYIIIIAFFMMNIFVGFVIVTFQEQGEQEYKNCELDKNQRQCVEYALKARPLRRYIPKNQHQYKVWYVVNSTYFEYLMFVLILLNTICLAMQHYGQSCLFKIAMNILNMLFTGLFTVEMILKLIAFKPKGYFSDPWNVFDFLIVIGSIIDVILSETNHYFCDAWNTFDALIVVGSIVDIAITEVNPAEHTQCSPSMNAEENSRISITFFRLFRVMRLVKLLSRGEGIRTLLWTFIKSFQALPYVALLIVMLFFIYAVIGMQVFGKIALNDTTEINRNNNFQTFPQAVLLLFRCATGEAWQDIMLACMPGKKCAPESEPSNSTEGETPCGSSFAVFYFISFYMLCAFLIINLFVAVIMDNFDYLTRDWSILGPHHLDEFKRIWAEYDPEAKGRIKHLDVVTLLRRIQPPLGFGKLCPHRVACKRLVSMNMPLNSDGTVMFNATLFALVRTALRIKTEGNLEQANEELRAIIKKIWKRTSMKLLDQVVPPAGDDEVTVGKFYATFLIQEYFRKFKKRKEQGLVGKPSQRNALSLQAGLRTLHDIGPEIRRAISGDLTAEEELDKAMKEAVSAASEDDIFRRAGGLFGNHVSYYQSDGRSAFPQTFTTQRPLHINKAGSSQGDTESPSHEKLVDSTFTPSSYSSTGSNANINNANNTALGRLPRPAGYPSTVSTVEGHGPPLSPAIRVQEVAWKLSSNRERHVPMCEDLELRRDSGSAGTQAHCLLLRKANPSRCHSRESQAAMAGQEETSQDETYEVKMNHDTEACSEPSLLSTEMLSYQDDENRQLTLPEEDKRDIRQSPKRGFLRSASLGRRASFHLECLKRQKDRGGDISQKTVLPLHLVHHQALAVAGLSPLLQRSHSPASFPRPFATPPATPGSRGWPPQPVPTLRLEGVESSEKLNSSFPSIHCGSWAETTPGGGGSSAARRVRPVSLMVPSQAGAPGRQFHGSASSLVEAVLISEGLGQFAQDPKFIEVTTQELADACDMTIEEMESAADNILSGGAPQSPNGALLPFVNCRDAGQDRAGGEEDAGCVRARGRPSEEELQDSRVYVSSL
Sequence (Q9NY47 19-1001 partner limits assumed): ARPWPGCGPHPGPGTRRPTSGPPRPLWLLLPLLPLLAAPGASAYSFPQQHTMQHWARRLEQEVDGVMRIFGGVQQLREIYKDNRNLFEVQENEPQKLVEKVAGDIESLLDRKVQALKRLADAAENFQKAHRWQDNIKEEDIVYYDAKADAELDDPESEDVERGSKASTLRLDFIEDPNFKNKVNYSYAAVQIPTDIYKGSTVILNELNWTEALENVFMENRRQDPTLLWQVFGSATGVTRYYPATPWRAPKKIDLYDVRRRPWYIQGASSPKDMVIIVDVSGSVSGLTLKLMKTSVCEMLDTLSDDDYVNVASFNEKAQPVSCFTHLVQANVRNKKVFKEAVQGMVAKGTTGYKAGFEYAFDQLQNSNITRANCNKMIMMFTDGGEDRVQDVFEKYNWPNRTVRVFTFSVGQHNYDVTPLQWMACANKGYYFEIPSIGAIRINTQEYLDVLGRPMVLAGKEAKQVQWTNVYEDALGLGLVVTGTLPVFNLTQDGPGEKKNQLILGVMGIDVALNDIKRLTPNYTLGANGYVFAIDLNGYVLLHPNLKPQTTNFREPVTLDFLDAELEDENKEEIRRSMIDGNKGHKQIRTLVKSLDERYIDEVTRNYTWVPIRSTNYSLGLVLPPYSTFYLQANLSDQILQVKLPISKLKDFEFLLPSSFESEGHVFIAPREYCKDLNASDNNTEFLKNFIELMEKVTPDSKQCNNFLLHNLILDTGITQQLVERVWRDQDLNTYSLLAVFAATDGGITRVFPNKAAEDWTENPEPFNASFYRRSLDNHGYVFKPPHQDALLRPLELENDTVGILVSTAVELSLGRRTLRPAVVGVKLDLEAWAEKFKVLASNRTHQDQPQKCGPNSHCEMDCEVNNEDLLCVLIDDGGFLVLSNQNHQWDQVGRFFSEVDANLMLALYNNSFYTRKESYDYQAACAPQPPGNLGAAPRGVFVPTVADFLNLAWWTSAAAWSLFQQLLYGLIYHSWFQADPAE
Sequence (Q9NY47 1002-1150 partner limits assumed): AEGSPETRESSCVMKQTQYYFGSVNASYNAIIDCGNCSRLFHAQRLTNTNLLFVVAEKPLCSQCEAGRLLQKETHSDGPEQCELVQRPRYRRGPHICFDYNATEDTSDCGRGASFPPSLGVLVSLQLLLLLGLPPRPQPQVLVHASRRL
Sequence (Q08289 whole entry partner): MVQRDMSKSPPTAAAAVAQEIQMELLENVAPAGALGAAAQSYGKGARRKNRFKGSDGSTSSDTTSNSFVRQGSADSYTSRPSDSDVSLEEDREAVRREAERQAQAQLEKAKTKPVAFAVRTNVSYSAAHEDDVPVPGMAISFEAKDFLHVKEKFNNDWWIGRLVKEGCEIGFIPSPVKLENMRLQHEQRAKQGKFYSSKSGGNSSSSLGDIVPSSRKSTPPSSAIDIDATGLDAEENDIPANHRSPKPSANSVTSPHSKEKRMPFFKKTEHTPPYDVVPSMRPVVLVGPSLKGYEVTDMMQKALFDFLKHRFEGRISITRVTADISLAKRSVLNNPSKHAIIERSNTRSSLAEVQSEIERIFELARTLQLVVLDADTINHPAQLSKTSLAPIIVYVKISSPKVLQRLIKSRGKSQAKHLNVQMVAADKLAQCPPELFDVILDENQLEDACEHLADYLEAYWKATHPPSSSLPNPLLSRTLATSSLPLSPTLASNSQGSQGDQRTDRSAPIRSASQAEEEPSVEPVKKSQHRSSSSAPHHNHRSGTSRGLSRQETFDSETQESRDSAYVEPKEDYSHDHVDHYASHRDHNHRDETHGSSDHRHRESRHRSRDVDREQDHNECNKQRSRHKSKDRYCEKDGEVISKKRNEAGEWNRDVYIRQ
Assay: Sophion QPatch whole-cell voltage clamp dose-response assay, Cav1.2-HEK293(AUX) cell line (barium currents)
Details: QPatch EC50, comparative examples, known CaV1.2 activators (Table 6)
Listed here are compounds together with their documented EC50.
Give the number; nM is assumed, so skip it.

A selection of reference data follows.
Input: Enter reported EC50 observed with human Cav1.2 (Homo sapiens, UniProt Q13936) for CCOC(=O)C1=C(C)NC2=C(C(=O)OC2)C1c1ccccc1C(F)(F)F (single isomer, unassigned) [reference compound]
Output: 930

Input: For human Cav1.2 (Homo sapiens, UniProt Q13936), provide EC50 of COC(=O)C1=C(C)NC2=C(C(=O)OC2)C1c1ccccc1C(F)(F)F (single isomer, unassigned) [reference compound] please.
Output: 360

Input: Report EC50 for COC(=O)C1=C(C)NC2=C(C(=O)OC2)C1c1ccccc1OC(F)F (single isomer, unassigned) [reference compound] tested on human Cav1.2 (Homo sapiens, UniProt Q13936).
Output: 510

---
Input: Lookup: EC50 / human Cav1.2 (Homo sapiens, UniProt Q13936) / COC(=O)C1=C(C)NC2=C(C(=O)OC2)C1c1ccccc1C (single isomer, unassigned) [reference compound]
Output: 2240

Input: Under human Cav1.2 (Homo sapiens, UniProt Q13936): EC50 value of CCOC(=O)C1=C(C)NC2=C(C(=O)OC2)[C@H]1c1ccccc1OCc1ccccc1 (single isomer, unassigned) [reference compound] ?
Output: 450

Input: Record lookup: for human Cav1.2 (Homo sapiens, UniProt Q13936), what EC50 belongs to CCOC(=O)C1=C(C)NC2=C(C(=O)OC2)[C@H]1c1ccccc1OC(F)F (single isomer, unassigned) [reference compound] ?
Output: 280
